# test-protocol: Stability in mouse liver homogenates assessed as remaining parent compound level after 30 mins
# Type: ADME, tissue-based
# test-parameters: liver homogenate, read-out: Stability
reported-metric: remaining at 0.5 h (%)

O=C(c1ccc(NCc2ccccc2)cc1)N1CCN(c2ncccn2)CC1 : 63
O=C(c1ccc(OCc2ccccc2)cc1)N1CCN(c2ncccn2)CC1 : 45

---

# test-protocol: Protein binding in plasma (unknown origin) by equilibrium dialysis assay
# Type: ADME, cell-free
# test-parameters: read-out: PPB (converted)
reported-metric: fraction unbound

O=C(c1ccc(-c2cccc(Cl)c2)cc1)N1CCN(c2ncccn2)CC1 : 0.008

I = O=C(c1ccc(NCc2ccccc2)cc1)N1CCN(c2ncccn2)CC1
II = O=C(c1ccc(-c2ccc(Cl)cc2)cc1)N1CCN(c2ncccn2)CC1
Task: Lab notebook, comparison: I versus II , higher fraction unbound goes to which? Refer to your chosen item by its label in the answer.
Output: I

---

# target-under-test: Sodium-dependent proline transporter (Homo sapiens, UniProt Q99884)
# test-protocol: Inhibition of human high-affinity L-proline transporter expressed in COS1 cells by [3H]proline uptake assay
reported-metric: IC50 (nM)

The cases that follow already have their IC50 on record.
O=C(c1ccc(-c2cccc(Cl)c2)cc1)N1CC2CN(c3ncccn3)CC2C1 (stereo unspecified) : 36
COc1ccc(-c2ccc(C(=O)N3CCN(c4ncccn4)CC3)cc2)cc1 : 230
O=C(c1ccc(C2CCCCC2)cc1)N1CCN(c2ncccn2)CC1 : 7010
O=C(c1ccc(OCc2ccccc2)cc1)N1CCN(c2ncccn2)CC1 : 270
O=C(c1ccc(-c2cccc(C(F)(F)F)c2)cc1)N1CCN(c2ncccn2)CC1 : 71

P = C[C@@H]1CN(c2ncccn2)CCN1C(=O)c1ccc(-c2ccc(Cl)cc2)cc1
Q = O=C(c1ccc(-c2ccccc2)cc1)N1CCN(c2ccccn2)CC1
R = CC(C)(C)C1CN(c2ncccn2)CCN1C(=O)c1ccc(-c2cccc(Cl)c2)cc1 (stereo unspecified)
S = O=C(c1ccc(-c2cccc(Cl)c2)cc1)N1CCCN(c2ncccn2)CC1
Task: Please list the entries, largest IC50 first. Provide the labels, sequenced as the question asks.
Output: R, Q, S, P

---

# test-protocol: Stability in mouse liver S9 fraction assessed as remaining parent compound level after 30 mins
# Type: ADME, subcellular
# test-parameters: read-out: Stability
reported-metric: remaining at 0.5 h (%)

O=C(c1ccc(-c2ccccc2)cc1)N1CCN(c2ccccn2)CC1 : 53
O=C(c1ccc(-c2cccc(Cl)c2)cc1)N1CC2CCC(C1)N2c1ncccn1 : 75
O=C(c1ccc(-c2cccc(Cl)c2)cc1)N1CCN(c2ncccn2)CC1 : 90
O=C(c1ccc(-c2cccc(Cl)c2)cc1)N1C2CCC1CN(c1ncccn1)C2 : 70

---

# test-protocol: Drug level in albino C57BL/6 mouse brain at 100 mg/kg, po after 6 hrs
# Type: ADME, organism-based
# Set-up: dose 100 mg/kg, route oral
# test-parameters: read-out: Drug uptake
reported-metric: concentration at 6 h (ng/mL)
Lab book: enter the figure in ng/mL, no units written.

Task: Look up concentration at 6 h for this molecule: "O=C(c1ccc(-c2cccc(Cl)c2)cc1)N1CC2CCC(C1)N2c1ncccn1"
Output: 2260

---

# test-protocol: Tmax in albino C57BL/6 mouse at 100 mg/kg, po
# Assay type: ADME, organism-based
# Design: dose 100 mg/kg, route oral
# test-parameters: in vivo
reported-metric: Tmax (min)
Kindly provide the numeric value in min only, without the unit symbol.

Task: # input compound: "O=C(c1ccc(-c2cccc(Cl)c2)cc1)N1CC2CCC(C1)N2c1ncccn1" ; wanted: its Tmax
Output: 22.8

---

# test-protocol: Ratio of drug level in brain to plasma in albino C57BL/6 mouse at 100 mg/kg, po after 6 hrs
# Format: ADME, organism-based
# Parameters: dose 100 mg/kg, route oral
# test-parameters: read-out: BPR
reported-metric: Kp at 6 h
The answer should be a number; do not append a unit.

Task: Value lookup for Kp at 6 h; key = "O=C(c1ccc(-c2cccc(Cl)c2)cc1)N1CC2CCC(C1)N2c1ncccn1"
Output: 1.7

---

# target-under-test: Sodium-dependent proline transporter (Homo sapiens, UniProt Q99884)
# Sequence (Q99884 whole entry): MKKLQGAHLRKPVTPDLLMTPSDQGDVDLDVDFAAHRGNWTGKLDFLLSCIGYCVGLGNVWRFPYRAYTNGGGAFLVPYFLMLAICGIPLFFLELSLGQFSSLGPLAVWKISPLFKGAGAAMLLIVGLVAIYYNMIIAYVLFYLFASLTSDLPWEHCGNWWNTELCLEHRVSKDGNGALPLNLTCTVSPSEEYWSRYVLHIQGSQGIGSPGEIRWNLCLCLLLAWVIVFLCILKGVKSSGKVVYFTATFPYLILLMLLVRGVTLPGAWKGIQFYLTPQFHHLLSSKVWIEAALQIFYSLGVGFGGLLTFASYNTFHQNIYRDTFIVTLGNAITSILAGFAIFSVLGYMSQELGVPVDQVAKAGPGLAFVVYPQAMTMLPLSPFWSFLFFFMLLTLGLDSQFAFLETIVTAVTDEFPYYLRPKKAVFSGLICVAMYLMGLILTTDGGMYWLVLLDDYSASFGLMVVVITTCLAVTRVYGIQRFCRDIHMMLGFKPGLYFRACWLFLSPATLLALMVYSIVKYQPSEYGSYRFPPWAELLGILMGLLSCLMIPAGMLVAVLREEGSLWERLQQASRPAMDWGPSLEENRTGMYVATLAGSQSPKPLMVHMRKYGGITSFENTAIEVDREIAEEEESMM
# test-protocol: Inhibition of human high-affinity L-proline transporter expressed in COS1 cells by [3H]proline uptake assay
pIC50: −log10 of the molar value.
reported-metric: pIC50

N#Cc1cccc(-c2ccc(C(=O)N3CCN(c4ncccn4)CC3)cc2)c1 : 6.72

A = Cc1ccc(-c2ccc(C(=O)N3CCN(c4ncccn4)CC3)cc2)s1
B = O=C(c1ccc(-c2ccc(Cl)s2)cc1)N1CCN(c2ncccn2)CC1
C = O=C(c1cccc(-c2ccccc2)c1)N1CCN(c2ncccn2)CC1
D = Cc1ccnc(N2CCN(C(=O)c3ccc(-c4ccccc4)cc3)CC2)n1
E = Cc1ccc(-c2ccc(C(=O)N3CCN(c4ncccn4)CC3)cc2)cc1
Task: Task for the reader: rank each entry by its pIC50, from the minimum upward. Provide your answer as the labels ordered per the instruction.
Output: C, D, B, A, E

I = O=C(c1ccc(-c2ccccc2)cc1)N1CCN(c2ccccc2)CC1
II = Cc1csc(-c2ccc(C(=O)N3CCN(c4ncccn4)CC3)cc2)c1
III = O=C(c1ccc(NCc2ccccc2)cc1)N1CCN(c2ncccn2)CC1
IV = O=C(c1ccc(-c2cccc(Cl)c2)cc1)N1C2CCC1CN(c1ncccn1)C2
Task: Sort the 4 compounds by pIC50; largest first, smallest last. Write the labels in rank order as requested.
Output: IV, II, III, I
(IV: 7.74, II: 7.47, III: 6.06, I: 5.83)

---

# target-under-test: Sodium-dependent proline transporter (Homo sapiens)
# test-protocol: Inhibition of human high-affinity L-proline transporter expressed in COS1 cells by [3H]proline uptake assay
reported-metric: IC50 (nM)

A = O=C(c1ccc(-c2ccccc2)cc1)N1CCN(c2cnccn2)CC1
B = O=C(c1ccc(-c2ccccc2)cc1)N1CCN(c2nccs2)CC1
C = O=C(c1ccc(-c2cccc(Cl)c2)cc1)N1CCN(c2ncccn2)CC1CO (configuration not stated)
D = C[C@H]1CN(c2ncccn2)CCN1C(=O)c1ccc(-c2ccc(Cl)cc2)cc1
E = O=C(c1ccccc1-c1ccccc1)N1CCN(c2ncccn2)CC1
Task: Sort the items above by IC50, starting with the smallest value. Please list the labels in the order you were asked to rank them.
Output: D, C, B, A, E
(D: 21 nM, C: 76 nM, B: 146 nM, A: 1300 nM, E: 6010 nM)

I = O=C(c1ccc(-c2ccccc2C(F)(F)F)cc1)N1CCN(c2ncccn2)CC1
II = CC1CN(c2ncccn2)CC(C)N1C(=O)c1ccc(-c2cccc(Cl)c2)cc1 (configuration not stated)
Task: For the two items I and II , which reports the higher IC50 value? // caller expects the label of the chosen entry
Output: I
(I: 1260 nM, II: 24 nM)

P = CCc1ccc(-c2ccc(C(=O)N3CCN(c4ncccn4)CC3)cc2)cc1
Q = Cc1ccccc1-c1ccc(C(=O)N2CCN(c3ncccn3)CC2)cc1
R = O=C(c1ccc(-c2ccccc2)cc1)N1CCN(c2ncccn2)CC1
S = O=C(c1ccc(-c2cccc(Cl)c2)cc1)N1CC2CCC(C1)N2c1ncccn1
T = O=C(O)C1CN(c2ncccn2)CCN1C(=O)c1ccc(-c2cccc(Cl)c2)cc1 (configuration not stated)
Task: Falling order of IC50, please. Form entry: labels listed in requested order.
Output: Q, R, T, P, S

---

# target-under-test: Sodium-dependent proline transporter (Homo sapiens)
# Sequence (Q99884 whole entry): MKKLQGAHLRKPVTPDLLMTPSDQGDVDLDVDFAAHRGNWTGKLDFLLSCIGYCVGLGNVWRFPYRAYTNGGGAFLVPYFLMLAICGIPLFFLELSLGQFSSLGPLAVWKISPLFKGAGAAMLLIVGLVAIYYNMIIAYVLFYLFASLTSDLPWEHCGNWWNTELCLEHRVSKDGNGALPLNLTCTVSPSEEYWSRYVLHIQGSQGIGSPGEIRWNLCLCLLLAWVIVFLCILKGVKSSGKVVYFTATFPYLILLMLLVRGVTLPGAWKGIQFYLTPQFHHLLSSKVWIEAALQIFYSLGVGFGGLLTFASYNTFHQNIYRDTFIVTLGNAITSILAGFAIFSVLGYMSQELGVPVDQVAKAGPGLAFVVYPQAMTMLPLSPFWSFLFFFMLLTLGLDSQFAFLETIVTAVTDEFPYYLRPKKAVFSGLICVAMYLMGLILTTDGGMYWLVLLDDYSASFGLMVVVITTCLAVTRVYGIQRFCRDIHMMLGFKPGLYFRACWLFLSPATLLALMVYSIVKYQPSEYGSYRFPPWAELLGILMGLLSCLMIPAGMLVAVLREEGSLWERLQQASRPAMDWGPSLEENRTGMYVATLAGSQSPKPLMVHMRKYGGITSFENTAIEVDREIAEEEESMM
# test-protocol: Inhibition of human high-affinity L-proline transporter expressed in COS1 cells by [3H]proline uptake assay
pIC50: −log10 of the molar value.
reported-metric: pIC50

O=C(c1ccc(-c2cccc(Cl)c2)cc1)N1CC2CC1CN2c1ncccn1 (stereo not given) : 5.87
O=C(c1ccc(-c2ccc(Cl)cc2)cc1)N1CCN(c2ncccn2)CC1 : 7.28
N#Cc1ccc(-c2ccc(C(=O)N3CCN(c4ncccn4)CC3)cc2)cc1 : 6.72

A = O=C(c1ccc(-c2ccccc2)cc1)N1CCN(c2cccnn2)CC1
B = CC1CN(C(=O)c2ccc(-c3ccccc3)cc2)CCN1c1ncccn1 (stereo not given)
C = O=C(c1ccc(-c2ccccc2)cc1)N1CCN(c2nccc(C(F)(F)F)n2)CC1
D = O=C(c1ccc(-c2cccc(Cl)c2)cc1)N1CCN(c2ncccn2)CC1
E = O=C(c1ccc(-c2cccc(OC(F)(F)F)c2)cc1)N1CCN(c2ncccn2)CC1
Task: // sort entries: pIC50, high to low # list labels per requested ordering
Output: D, E, B, C, A
(D: 7.44, E: 7.14, B: 6.32, C: 5.66, A: 5.30)

I = O=C(c1ccc(Oc2ccccc2)cc1)N1CCN(c2ncccn2)CC1
II = CC1(C)CN(c2ncccn2)CCN1C(=O)c1ccc(-c2cccc(Cl)c2)cc1
Task: Form field 'greater pIC50' accepts I or II ; which applies? Reply with the label of the item you choose.
Output: II
(II: 7.28, I: 5.71)
